Test system: HOP-62 NSCLC
Assay overview: NCI-60 one-dose screen, 48 h
Experimental parameters: 10 µM unless noted
About 83,000 compounds went through this panel and 20% of them were active in at least one assay; those are over-represented in the sample as a whole. Activity calls are given as the source filed them. Rule for the calls: active = growth percent below 10; inactive = the rest.
Labels: 1.0 = active, 0.0 = inactive

- Compound: "CCCCCCCCCCCCCCCC[N+](C)(CCO)Cc1cnc[nH]1 (stereo not given)"
  Assigned class: 1.0
- Compound: "C=CCOc1ccc(N=NC(C#N)C#N)cc1"
  Assigned class: 0.0
- Compound: "C[N+](C)=c1ccc2nc3c(cc(NCCCNc4cc5oc6cc(=[N+](C)C)ccc-6nc5c5ccccc45)c4ccccc43)oc-2c1"
  Assigned class: 0.0
- Compound: "O=C(/C=C\\c1cc(Br)ccc1O)/C=C/c1cc(Br)ccc1O"
  Assigned class: 1.0
- Compound: "OC(CNc1ccnc2cc(Cl)ccc12)CNc1ccnc2cc(Cl)ccc12"
  Assigned class: 0.0

* * *

System: RXF 393 renal
Assay overview: NCI-60 one-dose screen, 48 h
Experimental parameters: 100 µM
The panel holds about 83,000 compounds, 20% with a hit somewhere; the sample as a whole holds those more often. Active and inactive are the calls of the source. The calls were made as follows: active = growth percent below 10; inactive = the rest.
Labels: active, inactive

- Smiles entry: "O=C(Nc1c(Cl)cccc1Cl)Oc1cccc2cccnc12"
  Assigned class: "inactive"
- Smiles entry: "CN(C)C(=O)c1ccc(SC(=S)NCc2ccccc2)cc1"
  Assigned class: "active"
- Smiles entry: "O=C(Nc1cccc(Br)c1)Oc1cccc2cccnc12"
  Assigned class: "inactive"
- Smiles entry: "O=C(O)c1c(Cl)c(Cl)c(Cl)c(Cl)c1-c1c2cc(I)c(=O)c(I)c-2oc2c(I)c(O)c(I)cc12"
  Assigned class: "active"

* * *

Tested on: MCF7 breast
Assay overview: NCI-60 one-dose screen, 48 h (100 = growth as untreated, 0 = no growth, -100 = all killed)
Experimental parameters: 10 µM
Compounds without any hit were thinned out: in the full panel of roughly 83,000, 20% have a hit.
Value type: growth (%)

- Compound: "C=C(Cl)C(=NC(C)(C)C)Nc1ccccc1C"
  Value type: "growth"
  Unit abbrev: "%"
  Measured result: 66.6
- Compound: "COC(=O)c1nc(=S)[nH]c(C(=O)OC)c1C(=O)c1ccccn1"
  Value type: "growth"
  Unit abbrev: "%"
  Measured result: 14.6
- Compound: "O=C1c2ccccc2C(=O)N1c1ccccc1"
  Value type: "growth"
  Unit abbrev: "%"
  Measured result: 96.6
- Compound: "O=Nc1ccccc1N=O"
  Value type: "growth"
  Unit abbrev: "%"
  Measured result: 65.1
- Compound: "Oc1c(Cl)c2ccccc2c2ccccc12"
  Value type: "growth"
  Unit abbrev: "%"
  Measured result: 98.8
- Compound: "CNC(=O)N/N=C/c1ccc([N+](=O)[O-])o1"
  Value type: "growth"
  Unit abbrev: "%"
  Measured result: 95.3
- Compound: "CN1c2ccccc2C(C)(C)C12C=Cc1cc(O)ccc1O2 (stereo not given)"
  Value type: "growth"
  Unit abbrev: "%"
  Measured result: 5.47
- Compound: "Cc1ccc(N=C=C(c2ccccc2)c2ccccc2)cc1"
  Value type: "growth"
  Unit abbrev: "%"
  Measured result: 68.5
- Compound: "O=[N+]([O-])c1ccc2c(N=Nc3ccc4ccccc4c3O)c(O)cc(S(=O)(=O)O)c2c1"
  Value type: "growth"
  Unit abbrev: "%"
  Measured result: 98.6
- Compound: "C[n+]1c(/C=C/c2ccc([N+](=O)[O-])cc2)ccc2ccccc21"
  Value type: "growth"
  Unit abbrev: "%"
  Measured result: 96.1

This collection of values is drawn from PubChem BioAssay (NCI).
